# system-under-test: human DP2 (Homo sapiens)
# Construct: expressed in transfected cells; membranes prepared
# Sequence (Q9Y5Y4 1-395): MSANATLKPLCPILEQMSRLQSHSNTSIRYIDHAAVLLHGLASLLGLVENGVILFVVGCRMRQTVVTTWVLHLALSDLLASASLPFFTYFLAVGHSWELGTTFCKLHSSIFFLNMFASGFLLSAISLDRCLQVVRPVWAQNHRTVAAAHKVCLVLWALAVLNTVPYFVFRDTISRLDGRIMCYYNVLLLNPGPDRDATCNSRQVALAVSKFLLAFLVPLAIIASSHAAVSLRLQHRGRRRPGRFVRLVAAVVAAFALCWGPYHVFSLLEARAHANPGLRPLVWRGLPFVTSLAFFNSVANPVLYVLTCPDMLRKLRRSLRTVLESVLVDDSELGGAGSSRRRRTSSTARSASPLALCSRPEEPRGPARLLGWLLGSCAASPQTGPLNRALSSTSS
# assay-remarks: DP-2 binding inhibition assay (3H-PGD2, membranes of DP2-expressing K562 cells)
# measurement-context: 4% HSA, read-out: EC50 (nM) 4% HSA
endpoint: EC50 (nM)

Use the examples below as a reference point.
COc1ccc(-c2cccc(NC(=O)c3ccc(Oc4cc5c(cc4Cl)C(C(=O)O)CCO5)cc3)n2)cn1 (stereo not shown) [Example 54]: 337
O=C(Nc1ccc(-c2ccc(C(F)(F)F)cc2)nc1)c1ccc(Oc2cc3c(cc2Cl)C(C(=O)O)CCO3)cc1 (stereo not shown) [Example 76]: 101

1: O=C(Nc1cnn(-c2cccc(Cl)c2)c1)c1ccc(Oc2cc3c(cc2Cl)C(C(=O)O)CCO3)cc1 (stereo not shown) [Example 164]
2: O=C(Nc1cc(-c2ccccc2Cl)ccn1)c1ccc(Oc2cc3c(cc2Cl)C(C(=O)O)CCO3)cc1 (stereo not shown) [Example 122]
3: Cc1ccc(-c2cccc(NC(=O)c3ccc(Oc4cc5c(cc4C#N)C(C(=O)O)CCO5)cc3)n2)cc1C (stereo not shown) [Example 13]
// smallest EC50 at index 0, largest at the end # respond with the labels, arranged in the requested order
3, 1, 2
(3: 45.1 nM, 1: 143 nM, 2: 2580 nM)

a: O=C(Nc1cccc(-c2ccc(C(F)(F)F)cc2)n1)c1ccc(Oc2cc3c(cc2Cl)C(C(=O)O)CCO3)cc1 (stereo not shown) [Example 110]
b: O=C(Nc1cccc(-c2ccc(Cl)cc2F)n1)c1ccc(Oc2cc3c(cc2Cl)C(C(=O)O)CCO3)cc1 (stereo not shown) [Example 87]
c: O=C(Nc1cnc(-c2ccc(C(F)(F)F)cc2)cn1)c1ccc(Oc2cc3c(cc2Cl)C(C(=O)O)CCO3)cc1 (stereo not shown) [Example 61]
// smallest EC50 at index 0, largest at the end # respond with the labels, arranged in the requested order
a, b, c

I: O=C(Nc1ccc(-c2ccc(Cl)cc2)nn1)c1ccc(Oc2cc3c(cc2Cl)C(C(=O)O)CCO3)cc1 (stereo not shown) [Example 209]
II: O=C(Nc1cc(-c2ccc(Cl)cc2)no1)c1ccc(Oc2cc3c(cc2Cl)C(C(=O)O)CCO3)cc1 (stereo not shown) [Example 161]
EC50 comparison. Which is larger, I or II ? Please identify the chosen entry by its label.
I
(I: 207 nM, II: 74.6 nM)

1: O=C(Nc1ccc(-c2cccc(Cl)c2)nc1)c1ccc(Oc2c(Cl)cc3c(c2Cl)OCCC3C(=O)O)cc1 (stereo not shown) [Example 145]
2: CN(C)c1nc(C(F)(F)F)ccc1CCNC(=O)c1ccc(Oc2cc3c(cc2Cl)C(C(=O)O)CCO3)cc1 (stereo not shown) [Example 139]
3: O=C(Nc1ncc(-c2cccc(Cl)c2)cn1)c1ccc(Oc2cc3c(cc2Cl)C(C(=O)O)CCO3)cc1 (stereo not shown) [Example 134]
// smallest EC50 at index 0, largest at the end # respond with the labels, arranged in the requested order
2, 1, 3

a: O=C(Nc1ccc2cc(C(F)(F)F)ccc2n1)c1ccc(Oc2cc3c(cc2Cl)C(C(=O)O)CCO3)cc1 (stereo not shown) [Example 16]
b: N#Cc1cc2c(cc1Oc1ccc(C(=O)Nc3nc4ccc(C(F)(F)F)cc4s3)cc1)OCCC2C(=O)O (stereo not shown) [Example 201]
Of a and b , which shows the smaller EC50 value? Please identify the chosen entry by its label.
a
(a: 142 nM, b: 355 nM)

I: O=C(Nc1cccc(-c2ccc(Cl)cc2Cl)n1)c1ccc(Oc2cc3c(cc2Cl)C(C(=O)O)CCO3)cc1 (stereo not shown) [Example 103]
II: O=C(Nc1cnc2cc(Cl)ccc2n1)c1ccc(Oc2cc3c(cc2Cl)C(C(=O)O)CCO3)cc1 (stereo not shown) [Example 15]
III: O=C(Nc1ccc2cc(F)ccc2n1)c1ccc(Oc2cc3c(cc2Cl)C(C(=O)O)CCO3)cc1 (stereo not shown) [Example 18]
Parameters: sort_field (EC50), sort_dir (desc). # respond with the labels, arranged in the requested order
II, III, I
